Could you please report measured HC50 at 1 h for the items listed next?
Assay: Hemolytic activity in male Sprague-Dawley rat erythrocytes assessed as concentration required for 50% hemolysis incubated for 1 hr by absorbance based method
Assay type: toxicity, cell-based, Erythrocyte
Non-standard residues stand in square brackets, D forms with d. Residues, ends and D or L forms follow the SMILES beside them. Gly(N(CH2)2(3-indolyl)) = O=C(O)CNCCc1c[nH]c2ccccc12; Nspe = C[C@H](NCC(=O)O)c1ccccc1; Nphe = O=C(O)CNCc1ccccc1; Nlys = NCCCCNCC(=O)O

Query: For the molecule C[C@@H](c1ccccc1)N(CC(=O)N(CCCCN)CC(=O)N(CC(=O)N(CC(=O)N(CCCCN)CC(=O)N(CC(=O)N(CC(=O)N(CCCCN)CC(=O)N(CCc1c[nH]c2ccccc12)CC(=O)N(CCc1c[nH]c2ccccc12)CC(N)=O)Cc1ccccc1)Cc1ccccc1)Cc1ccccc1)Cc1ccccc1)C(=O)CN(Cc1ccccc1)C(=O)CN(CCCCN)C(=O)[C@H](Cc1c[nH]cn1)NC(=O)CNC(=O)CN (H-GGH[Nlys][Nphe][Nspe][Nlys][Nphe][Nphe][Nlys][Nphe][Nphe][Nlys][Gly(N(CH2)2(3-indolyl))][Gly(N(CH2)2(3-indolyl))]-NH2) , what HC50 at 1 h is on record?
Result: > 100 µM

Query: For the molecule "C[C@@H](c1ccccc1)N(CC(N)=O)C(=O)CN(CCCCN)C(=O)CN(CCCCN)C(=O)CN(C(=O)CN(C(=O)CN(CCCCN)C(=O)CN(C(=O)CN(C(=O)CN(CCCCN)C(=O)CN(CCc1c[nH]c2ccccc12)C(=O)CN(CCc1c[nH]c2ccccc12)C(=O)CNCCCCN)[C@@H](C)c1ccccc1)[C@@H](C)c1ccccc1)[C@@H](C)c1ccccc1)[C@@H](C)c1ccccc1" , what HC50 at 1 h is on record?
Result: > 100 µM

Query: For the molecule C[C@@H](c1ccccc1)N(CC(N)=O)C(=O)CN(CCCCN)C(=O)CN(C(=O)CN(C(=O)CN(CCCCN)C(=O)CN(C(=O)CN(C(=O)CN(CCCCN)C(=O)CN(C(=O)CN(C(=O)CN(CCCCN)C(=O)CNC(=O)[C@H](Cc1c[nH]cn1)NC(=O)CNC(=O)CN)[C@@H](C)c1ccccc1)[C@@H](C)c1ccccc1)[C@@H](C)c1ccccc1)[C@@H](C)c1ccccc1)[C@@H](C)c1ccccc1)[C@@H](C)c1ccccc1 (H-GGHG[Nlys][Nspe][Nspe][Nlys][Nspe][Nspe][Nlys][Nspe][Nspe][Nlys][Nspe]-NH2) , what HC50 at 1 h is on record?
Result: 100 µM

meta.source: ChEMBL document CHEMBL5584354
